- Test system: Escherichia coli TOP10;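 note: peptides expressed intracellularly from a pBAD plasmid library in pooled LB shake-flask culture, induced with 0.3% L-arabinose, DNA abundance read by NGS, three biological replicates, DESeq2 with apeglm shrinkage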
- assay notes: shrunken log2 fold change of peptide-encoding DNA abundance (4.5 h post-induction vs induction); higher = less antimicrobial activity (less host growth inhibition)
- experimental setup: time post-induction: 4.5 h; library: site-saturation at positions 5, 18, 19, 20
Category scheme (shrunken log2 fold change): low range: < -0.1; mid range: ≥ -0.1 and < 0.06; high range: ≥ 0.06

- residue string: "RRIRLRPPRLPRPRPRPQGLPRP"
  group: "mid range"
- residue string: "RRIRFRPPRLPRPRPRPQPMPRP"
  group: "high range"
- residue string: "RRIRMRPPRLPRPRPRPIHIPRP"
  group: "low range"
- residue string: "RRIRNRPPRLPRPRPRPTWAPRP"
  group: "high range"
- residue string: "RRIRYRPPRLPRPRPRPCLTPRP"
  group: "low range"
- residue string: "RRIRDRPPRLPRPRPRPWGVPRP"
  group: "high range"
- residue string: "RRIRFRPPRLPRPRPRPTFQPRP"
  group: "low range"
- residue string: "RRIRMRPPRLPRPRPRPRWIPRP"
  group: "mid range"
- residue string: "RRIRMRPPRLPRPRPRPCNSPRP"
  group: "low range"
- residue string: "RRIRRRPPRLPRPRPRPCWYPRP"
  group: "low range"
- residue string: "RRIRIRPPRLPRPRPRPAEYPRP"
  group: "mid range"
- residue string: "RRIRKRPPRLPRPRPRPCINPRP"
  group: "low range"
- residue string: "RRIRYRPPRLPRPRPRPTKIPRP"
  group: "low range"
- residue string: "RRIRNRPPRLPRPRPRPCWCPRP"
  group: "low range"
- residue string: "RRIRMRPPRLPRPRPRPTFVPRP"
  group: "high range"
- residue string: "RRIRVRPPRLPRPRPRPKMDPRP"
  group: "mid range"
- residue string: "RRIRCRPPRLPRPRPRPDYNPRP"
  group: "low range"
- residue string: "RRIRDRPPRLPRPRPRPCQWPRP"
  group: "low range"
- residue string: "RRIRTRPPRLPRPRPRPLNEPRP"
  group: "mid range"
- residue string: "RRIRNRPPRLPRPRPRPNMWPRP"
  group: "low range"
- residue string: "RRIRYRPPRLPRPRPRPAIHPRP"
  group: "low range"
- residue string: "RRIRIRPPRLPRPRPRPKWMPRP"
  group: "low range"
- residue string: "RRIRRRPPRLPRPRPRPFPVPRP"
  group: "high range"
- residue string: "RRIRRRPPRLPRPRPRPFKYPRP"
  group: "low range"
- residue string: "RRIRQRPPRLPRPRPRPPTVPRP"
  group: "low range"
- residue string: "RRIRHRPPRLPRPRPRPFYYPRP"
  group: "mid range"
- residue string: "RRIRGRPPRLPRPRPRPFLGPRP"
  group: "mid range"
- residue string: "RRIRFRPPRLPRPRPRPHRNPRP"
  group: "low range"
- residue string: "RRIRARPPRLPRPRPRPRQVPRP"
  group: "high range"
- residue string: "RRIRGRPPRLPRPRPRPMRKPRP"
  group: "high range"
- residue string: "RRIRTRPPRLPRPRPRPIERPRP"
  group: "high range"
- residue string: "RRIRGRPPRLPRPRPRPGWKPRP"
  group: "high range"
- residue string: "RRIRFRPPRLPRPRPRPHQVPRP"
  group: "mid range"
- residue string: "RRIRLRPPRLPRPRPRPFMFPRP"
  group: "low range"
- residue string: "RRIRMRPPRLPRPRPRPFKSPRP"
  group: "mid range"
- residue string: "RRIRTRPPRLPRPRPRPGANPRP"
  group: "low range"
- residue string: "RRIRMRPPRLPRPRPRPLIYPRP"
  group: "mid range"
- residue string: "RRIRTRPPRLPRPRPRPFESPRP"
  group: "mid range"
- residue string: "RRIRERPPRLPRPRPRPGCSPRP"
  group: "mid range"
- residue string: "RRIRHRPPRLPRPRPRPPSFPRP"
  group: "low range"
- residue string: "RRIRGRPPRLPRPRPRPDAYPRP"
  group: "high range"
- residue string: "RRIRHRPPRLPRPRPRPKGTPRP"
  group: "mid range"
- residue string: "RRIRPRPPRLPRPRPRPEMPPRP"
  group: "high range"
- residue string: "RRIRIRPPRLPRPRPRPSPPPRP"
  group: "low range"
- residue string: "RRIRGRPPRLPRPRPRPGPEPRP"
  group: "high range"
- residue string: "RRIRFRPPRLPRPRPRPRHNPRP"
  group: "low range"
- residue string: "RRIRRRPPRLPRPRPRPFPSPRP"
  group: "high range"
- residue string: "RRIRCRPPRLPRPRPRPQLAPRP"
  group: "high range"
- residue string: "RRIRWRPPRLPRPRPRPVSSPRP"
  group: "high range"
- residue string: "RRIRMRPPRLPRPRPRPYKPPRP"
  group: "mid range"
- residue string: "RRIRDRPPRLPRPRPRPVGCPRP"
  group: "high range"

Recorded values, source the supplement of paper PMC9112550.
